Test system: HT-1080
Measurement Protocol: Antiproliferative activity against human HT1080 cells after 72 hrs by MTT assay
Format: functional, cell-based
Protocol Conditions: HT-1080, 72 h
The reader will find reported pIC50 values listed item by item below.
Answer as the number alone; pIC50 is minus log10 of concentration in mol/L.

[
  {
    "Smiles Data": "COc1cccc(-c2nnc3sc(-c4ccc(OC)c(N)c4)nn23)c1",
    "pIC50": 7.06
  }
]

Query: Returns the measured pIC50 for the input compound. Input: COc1ccc(-c2cc3[nH]nc(-c4cc(OC)c(OC)c(OC)c4)n3n2)cc1[N+](=O)[O-]
Response: 4.45

Query: Returns the measured pIC50 for the input compound. Input: COc1ccc(-c2nnc3sc(-c4ccc(OC)c([N+](=O)[O-])c4)nn23)cc1OC
Response: 4.48

Query: Returns the measured pIC50 for the input compound. Input: COc1ccc(-c2cc3[nH]nc(-c4cc(OC)c(OC)c(OC)c4)n3n2)cc1N
Response: 4.75

Query: Returns the measured pIC50 for the input compound. Input: COc1ccc(-c2cc3[nH]nc(-c4cc(OC)c(OC)c(OC)c4)n3n2)cc1
Response: 4.58

Query: Returns the measured pIC50 for the input compound. Input: COc1ccc(-c2nn3c(-c4ccc(OC)c(OC)c4OC)nnc3s2)cc1
Response: 5.73

Query: Returns the measured pIC50 for the input compound. Input: COc1ccc(-c2nnc3sc(-c4ccc(C)cc4)nn23)c(OC)c1OC
Response: 7.05

Query: Returns the measured pIC50 for the input compound. Input: COc1ccc(-c2nnc3sc(-c4ccc(OC)c([N+](=O)[O-])c4)nn23)cc1
Response: 4.56

Query: Returns the measured pIC50 for the input compound. Input: COc1ccc(-c2nn3c(-c4cc(OC)c(OC)c(OC)c4)nnc3s2)cc1N
Response: 7.57
